A collection of molecules and their measured ERK Rmax
Target: hFPR1 (Homo sapiens, UniProt P21462)
Construct: expressed in transfected cells
Experiment: ERK1/2 phosphorylation (AlphaScreen SureFire) in hFPR1-FlpIn-CHO cells
Format: cell-based
Details: Table 10; receptor not given
Give your answer as a number; write no unit.

Record COc1cccc(Cc2cc(C)nn(CC(=O)Nc3ccc(Cl)cc3)c2=O)n1 . Reported ERK Rmax: 94

Entry under test: COc1cccc(Cc2cc(C)nn(C(C)C(=O)Nc3ccc(F)cc3)c2=O)c1 (centres unmarked) . Its ERK Rmax was 57

Note to self: ERK Rmax recorded for COc1ccccc1Cc1cc(C)nn(CC(=O)Nc2ccc(Cl)cc2)c1=O was 81

Lookup result for Cc1cc(Cc2ccccn2)c(=O)n(CC(=O)Nc2ccc(Cl)cc2)n1 [MIPS-0014057] ; measured ERK Rmax: 91

Further cases:
Entry COc1cccc(Cc2cc(C)nn(Cc3ccc(Cl)cc3)c2=O)c1OC ; ERK Rmax = 82

Lab book: ERK Rmax of COc1ccc(NC(=O)Cn2nc(C)cc(Cc3ccccc3OC)c2=O)cc1 noted as 64

Record CCc1ccc(NC(=O)Cn2nc(C)cc(Cc3ccccc3OC)c2=O)cc1 , field ERK Rmax: 79

The reported ERK Rmax of the molecule COc1cccc(Cc2cc(C)nn(C(C)C(=O)Nc3ccc4c(c3)OCO4)c2=O)c1 (centres unmarked) [MIPS-0008750] was 74

get_value(item= COc1ccccc1Cc1cc(C)nn(C(C)C(=O)Nc2ccc(Br)cc2)c1=O (centres unmarked) , readout=ERK Rmax) returns 76

---

Molecular target: hFPR1 (Homo sapiens)
Construct: expressed in transfected cells
Sequence (P21462 1-350): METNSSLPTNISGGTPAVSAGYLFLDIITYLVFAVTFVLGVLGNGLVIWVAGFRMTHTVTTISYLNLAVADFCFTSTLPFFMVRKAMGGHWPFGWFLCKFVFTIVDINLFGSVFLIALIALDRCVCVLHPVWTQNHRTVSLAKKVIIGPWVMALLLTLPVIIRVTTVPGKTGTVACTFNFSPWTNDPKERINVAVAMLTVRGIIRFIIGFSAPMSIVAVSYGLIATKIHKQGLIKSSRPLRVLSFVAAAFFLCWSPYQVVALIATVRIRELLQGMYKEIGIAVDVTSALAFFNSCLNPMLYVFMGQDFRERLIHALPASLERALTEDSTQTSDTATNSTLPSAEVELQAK
Test: ERK1/2 phosphorylation (AlphaScreen SureFire) in hFPR1-FlpIn-CHO cells
Type: cell-based
Details: Table 10; receptor not given
Kindly return 1 if reported ERK Rmax is no lower than 80; return -1 if it is lower.

## Task Check the entry COc1cccc(Cc2cc(C)nn(C(C)C(=O)Nc3ccc4c(c3)OCO4)c2=O)c1 (centres unmarked) [MIPS-0008856] : does ERK Rmax equal or exceed 80?
## Result -1

## Task Check this molecule for ERK Rmax at or above 80: COc1cccc(Cc2cc(C)nn(C(C)C(=O)Nc3ccc(Cl)cc3)c2=O)c1 (centres unmarked) [MIPS008744]
## Result 1

## Task Identify whether the reported ERK Rmax of the following molecule is 80 or greater: Cc1cc(Cc2ccccn2)c(=O)n(CC(=O)Nc2ccc(Cl)cc2)n1 [MIPS-0010397]
## Result -1

## Task Check this molecule for ERK Rmax at or above 80: COc1ccc(OC)c(Cc2cc(C)nn(CC(=O)Nc3ccc(Cl)cc3)c2=O)c1 [MIPS-0010384]
## Result -1

## Task Answer whether ERK Rmax of COc1ccccc1Cc1cc(C)nn(CC(=O)Nc2ccc(C)cc2)c1=O [MIPS-0014058] is greater than or equal to 80.
## Result 1

Others:
## Task Hello, I need to know if Cc1cc(Cc2cccnc2)c(=O)n(CC(=O)Nc2ccc(Cl)cc2)n1 [MIPS-0010396] has measured ERK Rmax not below 80. Thanks!
## Result -1
